Where do the numbers come from? From patent US20250243286A1.

# EXPERIMENTAL SYSTEM: T1, human ActRIIA (human, UniProt P27037 20-135, limits assumed)
# T1 construct: antigen in MSD-SET; also called ACVR2A; ActR2A
# T1 sequence (P27037 20-135 limits assumed): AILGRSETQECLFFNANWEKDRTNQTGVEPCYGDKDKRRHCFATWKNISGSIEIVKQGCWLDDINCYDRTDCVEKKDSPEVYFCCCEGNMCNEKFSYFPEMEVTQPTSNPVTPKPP
# PROTOCOL DESCRIPTION: MSD-SET
Each record here notes measured pKd.
Recall that pKd is obtained by taking minus log10 of the concentration measured in molar.

Antibody Bebballesgmias (antibody, V domains shown, full-length IgG) VH: QVQLVQSGAEVKKPGSSVKVSCKASGYKFTSSYINWVRQAPGQGLEWMGTINPVSGSTSYAQKFQGRVTITADTSTSTAYMELSSLRSEDTAVYYCARGGWFDYWGQGTLVTVSS VL: QSALTQPRSVSGSPGQSVTISCTGTSSDVGSYNYVNWYQQHPGKAPKLMIYGVSKRPRGVPDRFSGSKSGNTASLTISGLQAEDEADYYCGTFAGGSYYGVFGGGTKLTVL    10.17

Next:
Record Antibody Hefaknöpfla (antibody, V domains shown, full-length IgG) VH: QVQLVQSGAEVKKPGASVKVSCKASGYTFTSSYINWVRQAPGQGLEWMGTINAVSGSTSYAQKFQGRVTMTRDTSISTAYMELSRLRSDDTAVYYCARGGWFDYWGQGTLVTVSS VL: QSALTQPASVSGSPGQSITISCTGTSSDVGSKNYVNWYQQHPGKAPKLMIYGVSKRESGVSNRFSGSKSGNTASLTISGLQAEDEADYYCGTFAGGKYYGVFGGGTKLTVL . Reported pKd: 10.91
